Test system: Hepatitis C virus
Experiment: Antiviral activity against HCV genotype 1b Con1 bicistronic replicon infected in human Huh7 cells assessed as replicon RNA expression measured 3 days post dose by real time RT-PCR analysis
Type: functional, organism-based, Hepacivirus hominis
Details: isolate Con1, Huh-7, 72 h
pEC50: −log10 of the molar value.
Please enter MET where pEC50 is greater than or equal to 8, and NOT MET where it is lower.

{"smiles.text": "CCc1cc2c(cc1F)c(C(N)=O)c(-c1ccc(NS(=O)(=O)C(C)C)cc1)n2C1CCCC1", "target.under.test": "Hepatitis C virus", "answer.label": "NOT MET"}

[ask] Would you say CC(C)(C)S(=O)(=O)Nc1ccc(-c2c(C(N)=O)c3cc(F)c(OC(F)F)cc3n2C2CCCCC2)c(Cl)c1 shows pEC50 at minimum 8?
[reply] MET

[ask] Would you say CCc1cc2c(cc1F)c(C(N)=O)c(-c1ccc(NS(=O)(=O)C(C)(C)C)nc1)n2C1CCCCC1 shows pEC50 at minimum 8?
[reply] NOT MET

----------
Experiment: Toxicity against human HuH7 cells harboring HCV genotype 1b bicistronic replicon assessed as inhibition of GAPDH mRNA expression measured 3 days post dose by real time RT-PCR analysis
Assay type: cell-based, Huh-7
Measured IC50 at 3 days, listed per entry.

Example cases with answers are listed next.
{"smiles.text": "Cc1cc(NS(=O)(=O)C(C)(C)C)ccc1-c1c(C(N)=O)c2cc(F)c(OC(F)F)cc2n1C1CCCCC1", "meas.value": "> 10 µM"}
{"smiles.text": "CC(C)(C)S(=O)(=O)Nc1ccc(-c2c(C(N)=O)c3cc(F)c(OC(F)F)cc3n2C2CCCCC2)cc1F", "meas.value": "> 1 µM"}
{"smiles.text": "Cc1cc(F)c2c(C(N)=O)c(-c3ccc(NS(=O)(=O)C(C)(C)C)cc3)n(C3CCCC3)c2c1", "meas.value": "> 10 µM"}
{"smiles.text": "CCc1cc2c(cc1F)c(C(N)=O)c(-c1cnc(NS(=O)(=O)C(C)(C)C)nc1)n2C1CCCCC1", "meas.value": "> 10 µM"}
{"smiles.text": "CC(C)(C)S(=O)(=O)Nc1ccc(-c2c(C(N)=O)c3cc(F)c(OC(F)F)cc3n2C2CCCC2)cc1", "meas.value": "> 10 µM"}

[ask] # IC50 at 3 days lookup, item Cc1cc(-c2c(C(N)=O)c3cc(F)c(OC(F)F)cc3n2C2CCCCC2)ccc1NS(=O)(=O)C(C)(C)C
[reply] > 1 µM

[ask] # IC50 at 3 days lookup, item COc1cc2c(cc1F)c(C(N)=O)c(-c1ccc(NS(=O)(=O)C(C)(C)C)cc1)n2C1CCCC1
[reply] > 10 µM

[ask] # IC50 at 3 days lookup, item CCc1cc2c(cc1F)c(C(N)=O)c(-c1ccc(NS(=O)(=O)C(C)(C)C)nc1)n2C1CCCCC1
[reply] > 10 µM

[ask] # IC50 at 3 days lookup, item Cc1cc2c(cc1F)c(C(N)=O)c(-c1ccc(NS(=O)(=O)C(C)(C)C)cc1)n2-c1cccnc1
[reply] > 10 µM

[ask] # IC50 at 3 days lookup, item CCc1cc2c(cc1F)c(C(N)=O)c(-c1ccc(NS(=O)(=O)C(C)(C)C)cc1)n2C1CCCC1
[reply] > 10 µM

[ask] # IC50 at 3 days lookup, item CC(C)(C)S(=O)(=O)Nc1ccc(-c2c(C(N)=O)c3cc(F)c(OC(F)F)cc3n2-c2ccccc2)c(F)c1
[reply] > 10 µM

[ask] # IC50 at 3 days lookup, item Cc1cc2c(cc1F)c(C(N)=O)c(-c1ccc(NS(=O)(=O)C(C)(C)C)cc1)n2C1CCCC1
[reply] > 10 µM

[ask] # IC50 at 3 days lookup, item CC(C)(C)S(=O)(=O)Nc1ccc(-c2c(C(N)=O)c3cc(F)c(OC(F)F)cc3n2C2CCCCC2)c(Cl)c1
[reply] > 10 µM

[ask] # IC50 at 3 days lookup, item CCc1cc2c(cc1F)c(C(N)=O)c(-c1ccc(NS(=O)(=O)C(C)C)cc1)n2C1CCCC1
[reply] > 10 µM

[ask] # IC50 at 3 days lookup, item CC(C)(C)S(=O)(=O)Nc1ccc(-c2c(C(N)=O)c3cc(F)c(OC(F)F)cc3n2C2CCCCC2)cc1Cl
[reply] > 1 µM

[ask] # IC50 at 3 days lookup, item CC(C)(C)S(=O)(=O)Nc1ccc(-c2c(C(N)=O)c3cc(F)c(OC(F)F)cc3n2C2CCCC2)c(Cl)c1
[reply] 4.5 µM

[ask] # IC50 at 3 days lookup, item Cc1cc2c(cc1F)c(C(N)=O)c(-c1ccc(NS(=O)(=O)C(C)C)cc1)n2C1CCCC1
[reply] > 10 µM
